Biological target: glucokinase (GK) (Homo sapiens)
Construct: I.D. No. 1 corresponds to residues 13-466 of glucokinase
Sequence (P35557 with tags, fused parts or gaps isoform P35557-2): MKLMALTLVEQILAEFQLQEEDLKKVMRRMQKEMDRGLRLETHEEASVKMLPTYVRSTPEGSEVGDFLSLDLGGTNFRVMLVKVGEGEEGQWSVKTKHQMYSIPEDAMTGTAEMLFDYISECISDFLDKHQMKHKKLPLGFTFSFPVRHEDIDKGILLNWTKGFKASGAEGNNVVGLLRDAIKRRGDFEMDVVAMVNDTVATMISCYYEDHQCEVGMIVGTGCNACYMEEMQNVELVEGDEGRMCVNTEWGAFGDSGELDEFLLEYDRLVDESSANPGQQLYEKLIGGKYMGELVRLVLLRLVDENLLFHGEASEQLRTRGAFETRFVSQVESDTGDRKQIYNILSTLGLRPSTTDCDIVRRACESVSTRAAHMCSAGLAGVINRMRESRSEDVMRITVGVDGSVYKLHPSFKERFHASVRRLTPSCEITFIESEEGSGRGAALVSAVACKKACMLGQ
Experiment: enzymatic glucokinase activity assay (ATP consumption, KinaseGlo luminescence)
Settings: recombinant GK; 5 μM ATP, 5 mM Glucose, 2% DMSO, 60 min at room temperature; Kact = concentration giving 50% of the maximal increase in GK activity; read-out: pKact
MEASURE_NAME: EC50

Example compounds with recorded EC50:
Cn1ccnc1COc1ccccc1-c1cc(-c2ccc(F)cc2)n[nH]1	≤ 2000 nM
c1ccc(-c2cc(-c3ccccc3Oc3cccnc3)[nH]n2)cc1	2510 to 3980 nM

Look at each compound and report its EC50.
1. COC[C@H](C)Oc1cc(Oc2ccc(S(C)(=O)=O)cc2)cc(-c2cc(OC)n[nH]2)c1
2. COc1ccc(NC(=O)Cc2ccccc2)cc1-c1cc(-c2ccccc2)n[nH]1
3. COc1cc(NCc2ccccc2)ccc1-c1cc(-c2ccccc2)n[nH]1
4. COCCOc1cc(OCc2ccccc2)ccc1-c1cc(-c2ccccc2)n[nH]1
5. COc1cc([N+](=O)[O-])ccc1-c1cc(-c2ccccc2)n[nH]1

Resp:
["≤ 2000 nM", "≤ 2000 nM", "2510 to 3980 nM", "≤ 2000 nM", "≤ 2000 nM"]

Each of the following entries comes with a recorded value; kindly state EC50 for each.
1. COc1ccccc1-c1cc(-c2cccc(F)c2)[nH]n1
2. COc1ccccc1-c1nc(SCc2ccccc2F)n[nH]1
3. COc1ccc(F)cc1-c1cc(OCc2ccccc2F)n[nH]1

Resp:
≥ 5010 nM
2510 to 3980 nM
≥ 5010 nM

Req: Checklist item: EC50 tested on glucokinase (GK) (Homo sapiens), entry `COc1cc(-c2ccc3ncn(CC4CCCCC4)c3c2)[nH]n1` , value?
Resp: ≥ 5010 nM
